The following compounds each carry a recorded AC50 for Gamma-aminobutyric acid receptor subunit alpha-1 (Rattus norvegicus, UniProt P62813).

Compound: CCCCCCCCOc1ccccc1C(=O)Nc1ccc(C(=O)OCC[N+](C)(CC)CC)cc1 [OTILONIUM BROMIDE]
AC50: > 30 µM
--
Compound: O=C(CCCCC(=O)Nc1c(I)cc(I)c(C(=O)O)c1I)Nc1c(I)cc(I)c(C(=O)O)c1I [IODIPAMIDE]
AC50: > 10 µM
--
Compound: NC(CO)C(=O)NNCc1ccc(O)c(O)c1O (stereo not given) [BENSERAZIDE]
AC50: > 10 µM
--
Compound: CC(C)NCC1CCc2cc(CO)c([N+](=O)[O-])cc2N1 (stereo not given)
AC50: > 10 µM
--
Compound: COc1c(N2CCNC(C)C2)c(F)cc2c(=O)c(C(=O)O)cn(C3CC3)c12 (stereo not given)
AC50: > 10 µM

---

The listing below reports AC50 for compounds tested on UniProtKB Q01959.
Sequence (Q01959 whole entry): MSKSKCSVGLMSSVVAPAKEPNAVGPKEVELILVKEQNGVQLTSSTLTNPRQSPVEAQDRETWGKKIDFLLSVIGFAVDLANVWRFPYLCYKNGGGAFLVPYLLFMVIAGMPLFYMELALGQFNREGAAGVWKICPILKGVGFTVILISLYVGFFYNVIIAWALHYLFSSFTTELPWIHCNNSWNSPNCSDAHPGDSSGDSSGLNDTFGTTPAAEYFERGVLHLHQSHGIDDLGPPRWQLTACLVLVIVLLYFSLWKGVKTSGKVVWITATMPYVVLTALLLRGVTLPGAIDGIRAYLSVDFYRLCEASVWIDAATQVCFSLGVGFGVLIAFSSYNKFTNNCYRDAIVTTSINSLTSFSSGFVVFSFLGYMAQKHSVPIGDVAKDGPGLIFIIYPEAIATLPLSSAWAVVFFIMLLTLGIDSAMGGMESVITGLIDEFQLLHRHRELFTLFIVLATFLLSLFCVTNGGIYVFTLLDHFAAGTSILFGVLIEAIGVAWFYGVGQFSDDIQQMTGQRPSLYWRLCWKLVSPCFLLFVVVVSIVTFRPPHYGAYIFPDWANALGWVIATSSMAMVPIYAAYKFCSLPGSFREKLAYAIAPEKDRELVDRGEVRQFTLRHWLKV

Compound: CC(C(=O)O)c1ccc(N2CC=CC2)c(Cl)c1 (stereo not given) [PIRPROFEN]
Comparison Operator: >
AC50, µM: 10
//
Compound: O=C(Nc1ccccc1)OCC(CN1CCCCC1)OC(=O)Nc1ccccc1 (stereo not given) [DIPERODON]
Comparison Operator: =
AC50, µM: 6.69
//
Compound: CC1=CC(=O)c2ccccc2C1=O [MENADIONE]
Comparison Operator: >
AC50, µM: 10
//
Compound: Cc1cc2c(OCC(CNC(C)(C)C)OC(=O)c3ccccc3)cccc2[nH]1 (stereo not given) [BOPINDOLOL]
Comparison Operator: =
AC50, µM: 12
//
Compound: CCCCCCCCOc1ccccc1C(=O)Nc1ccc(C(=O)OCC[N+](C)(CC)CC)cc1 [OTILONIUM BROMIDE]
Comparison Operator: =
AC50, µM: 4.4

---

Target Or Test System: cGMP-inhibited 3',5'-cyclic phosphodiesterase 3A (Homo sapiens); further: assay procedure not described here
Sequence (Q14432 whole entry): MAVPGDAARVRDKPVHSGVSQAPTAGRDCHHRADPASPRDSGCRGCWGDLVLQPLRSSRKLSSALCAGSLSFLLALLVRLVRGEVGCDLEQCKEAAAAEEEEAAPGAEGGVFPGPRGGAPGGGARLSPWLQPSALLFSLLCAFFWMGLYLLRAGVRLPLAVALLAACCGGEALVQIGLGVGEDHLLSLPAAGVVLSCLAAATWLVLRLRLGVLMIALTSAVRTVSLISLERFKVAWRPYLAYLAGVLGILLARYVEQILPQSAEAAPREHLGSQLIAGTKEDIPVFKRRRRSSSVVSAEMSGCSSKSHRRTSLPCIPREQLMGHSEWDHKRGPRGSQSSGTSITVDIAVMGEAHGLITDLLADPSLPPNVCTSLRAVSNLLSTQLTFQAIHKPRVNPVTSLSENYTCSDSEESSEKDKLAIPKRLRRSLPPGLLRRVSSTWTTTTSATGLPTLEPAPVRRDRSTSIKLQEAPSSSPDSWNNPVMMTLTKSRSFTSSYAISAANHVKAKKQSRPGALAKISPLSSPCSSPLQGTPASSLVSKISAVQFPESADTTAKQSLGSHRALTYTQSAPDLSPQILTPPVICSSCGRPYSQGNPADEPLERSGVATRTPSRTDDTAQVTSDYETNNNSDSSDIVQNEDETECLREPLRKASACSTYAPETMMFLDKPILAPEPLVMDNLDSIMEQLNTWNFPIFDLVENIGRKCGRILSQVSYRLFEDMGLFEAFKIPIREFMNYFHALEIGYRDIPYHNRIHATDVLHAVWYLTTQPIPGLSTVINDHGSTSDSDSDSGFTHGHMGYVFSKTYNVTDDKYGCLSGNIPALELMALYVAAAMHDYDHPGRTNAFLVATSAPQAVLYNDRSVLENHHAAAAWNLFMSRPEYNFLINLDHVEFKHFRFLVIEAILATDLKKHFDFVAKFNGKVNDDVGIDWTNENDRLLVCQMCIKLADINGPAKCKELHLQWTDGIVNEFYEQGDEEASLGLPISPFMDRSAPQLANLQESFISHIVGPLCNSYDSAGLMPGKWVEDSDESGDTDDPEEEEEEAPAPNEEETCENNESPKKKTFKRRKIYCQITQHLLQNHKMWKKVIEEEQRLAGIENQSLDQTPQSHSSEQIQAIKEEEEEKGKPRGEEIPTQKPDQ
Format: functional

Compound: NC(=O)C[S+]([O-])C(c1ccccc1)c1ccccc1 (configuration not stated) [MODAFINIL]
Target Or Test System: cGMP-inhibited 3',5'-cyclic phosphodiesterase 3A (Homo sapiens); further: assay procedure not described here
AC50: > 30 µM
--
Compound: O=C(O)Cc1cn(-c2ccccc2)nc1-c1ccc(Cl)cc1 [LONAZOLAC]
Target Or Test System: cGMP-inhibited 3',5'-cyclic phosphodiesterase 3A (Homo sapiens); further: assay procedure not described here
AC50: > 30 µM
--
Compound: CCCCCN(C)CCC(O)(P(=O)(O)O)P(=O)(O)O [IBANDRONIC ACID]
Target Or Test System: cGMP-inhibited 3',5'-cyclic phosphodiesterase 3A (Homo sapiens); further: assay procedure not described here
AC50: 1.9 µM
--
Compound: CCCOc1ccc(C(=O)OCCN(CC)CC)cc1N [PROPARACAINE]
Target Or Test System: cGMP-inhibited 3',5'-cyclic phosphodiesterase 3A (Homo sapiens); further: assay procedure not described here
AC50: > 30 µM
--
Compound: COc1ccc(C(=O)N2CCN(c3ccc4c(c3)CCC(=O)N4)CC2)cc1OC [VESNARINONE]
Target Or Test System: cGMP-inhibited 3',5'-cyclic phosphodiesterase 3A (Homo sapiens); further: assay procedure not described here
AC50: 8.46 µM
--
Compound: COc1cc(Nc2c(C#N)cnc3cc(OCCCN4CCN(C)CC4)c(OC)cc23)c(Cl)cc1Cl [BOSUTINIB]
Target Or Test System: cGMP-inhibited 3',5'-cyclic phosphodiesterase 3A (Homo sapiens); further: assay procedure not described here
AC50: > 30 µM
--
Compound: CCN1CCC[C@H]1CNC(=O)c1cc(S(N)(=O)=O)ccc1OC [LEVOSULPIRIDE]
Target Or Test System: cGMP-inhibited 3',5'-cyclic phosphodiesterase 3A (Homo sapiens); further: assay procedure not described here
AC50: > 30 µM

---

Lab note: AC50 readings collected with UniProt:P25929 for the following molecules.
Sequence (P25929 whole entry): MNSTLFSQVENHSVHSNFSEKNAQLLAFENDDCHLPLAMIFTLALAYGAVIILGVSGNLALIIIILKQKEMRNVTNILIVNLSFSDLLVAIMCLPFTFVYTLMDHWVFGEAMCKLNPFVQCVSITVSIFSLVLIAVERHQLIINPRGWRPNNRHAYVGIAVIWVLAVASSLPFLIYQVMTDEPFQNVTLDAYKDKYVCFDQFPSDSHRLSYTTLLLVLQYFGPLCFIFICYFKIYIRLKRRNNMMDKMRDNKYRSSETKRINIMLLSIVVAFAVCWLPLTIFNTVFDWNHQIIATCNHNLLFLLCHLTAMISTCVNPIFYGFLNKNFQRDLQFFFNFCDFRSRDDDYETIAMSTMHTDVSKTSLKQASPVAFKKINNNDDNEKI
Measured Metric: AC50

Molecule: CC(=O)NS(=O)(=O)c1ccc(N)cc1 [SULFACETAMIDE]
Value: > 10 µM

Molecule: O=C1NCCN1CCN1CCC(c2cn(-c3ccc(F)cc3)c3ccc(Cl)cc23)CC1
Value: > 30 µM

Molecule: C#C[C@]1(O)CC[C@H]2[C@@H]3CCC4=CCCC[C@@H]4[C@H]3CC[C@@]21C
Value: > 30 µM

---

The entries below come with measured AC50 values attached.
Target Or Test System: Alpha-2A adrenergic receptor (Homo sapiens, UniProt P08913); further: assay procedure not described here
Sequence (P08913 whole entry): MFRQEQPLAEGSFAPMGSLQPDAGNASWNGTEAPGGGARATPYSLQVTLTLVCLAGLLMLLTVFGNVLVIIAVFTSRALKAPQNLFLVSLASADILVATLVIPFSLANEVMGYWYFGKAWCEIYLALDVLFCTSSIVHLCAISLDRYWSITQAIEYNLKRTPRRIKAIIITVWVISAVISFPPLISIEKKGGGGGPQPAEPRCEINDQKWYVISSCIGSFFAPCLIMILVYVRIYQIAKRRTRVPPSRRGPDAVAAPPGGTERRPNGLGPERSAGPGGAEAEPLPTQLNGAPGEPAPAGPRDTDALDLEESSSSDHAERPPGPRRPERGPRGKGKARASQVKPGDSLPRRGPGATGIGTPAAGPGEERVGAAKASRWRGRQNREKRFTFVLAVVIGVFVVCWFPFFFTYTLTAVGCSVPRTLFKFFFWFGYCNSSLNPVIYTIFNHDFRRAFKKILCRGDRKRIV
Format: functional, cell-based
Measured Metric: AC50

Compound: CC/C=C\C/C=C\C/C=C\CCCCCCCC(=O)O [LINOLENIC ACID]
Value: > 30 µM
--
Compound: CN1CCC2=C(C1)C(c1ccccc1)c1ccccc12 (stereo not drawn) [PHENINDAMINE]
Value: > 10 µM
--
Compound: CCCOc1ccc(C(=O)OCCN(CC)CC)cc1N [PROPARACAINE]
Value: > 30 µM
--
Compound: O=C(CCCCCCC(=O)Nc1ccccc1)NO [VORINOSTAT]
Value: > 30 µM
--
Compound: CCN1CCC[C@H]1CNC(=O)c1cc(S(N)(=O)=O)ccc1OC [LEVOSULPIRIDE]
Value: > 10 µM
--
Compound: Cc1cc(-c2ccccc2)nnc1NCCN1CCOCC1 [MINAPRINE]
Value: > 10 µM
--
Compound: O=C(O)c1cc(-c2ccc(F)cc2F)ccc1O [DIFLUNISAL]
Value: > 10 µM
--
Compound: CC(=O)N(CC(O)CO)c1c(I)c(C(=O)NCC(O)CO)c(I)c(C(=O)NCC(O)CO)c1I (stereo not drawn) [IOHEXOL]
Value: > 10 µM

---

Target Or Test System: Growth hormone secretagogue receptor type 1 (Homo sapiens); further: assay procedure not described here
Sequence (Q92847 whole entry): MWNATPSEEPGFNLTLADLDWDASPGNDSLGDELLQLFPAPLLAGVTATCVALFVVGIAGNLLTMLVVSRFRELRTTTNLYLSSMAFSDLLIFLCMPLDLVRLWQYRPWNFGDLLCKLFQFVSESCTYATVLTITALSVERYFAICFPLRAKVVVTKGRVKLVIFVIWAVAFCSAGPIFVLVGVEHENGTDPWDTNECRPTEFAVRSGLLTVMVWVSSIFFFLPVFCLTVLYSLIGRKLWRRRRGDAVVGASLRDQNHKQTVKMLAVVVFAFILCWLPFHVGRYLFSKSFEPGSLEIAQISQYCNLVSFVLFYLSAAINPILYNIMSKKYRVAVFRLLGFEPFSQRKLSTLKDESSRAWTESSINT
Each item that follows carries a reported AC50.
Measured Metric: AC50

Compound: C1=Cc2cccc(OCC3CNCCO3)c2C1 (configuration not stated) [INDELOXAZINE]
Value: > 30 µM
--
Compound: COC(=O)C1=C(C)NC(C)=C(C(=O)OC(C)C)C1c1cccc2nonc12 (configuration not stated) [ISRADIPINE]
Value: > 30 µM
--
Compound: CC(=O)O[C@@]12CO[C@@H]1C[C@H](O)[C@@]1(C)C(=O)[C@H](O)C3=C(C)[C@@H](OC(=O)[C@H](O)[C@@H](NC(=O)OC(C)(C)C)c4ccccc4)C[C@@](O)([C@@H](OC(=O)c4ccccc4)[C@H]21)C3(C)C [DOCETAXEL ANHYDROUS]
Value: > 30 µM
--
Compound: CC(C)C(=O)Nc1ccc([N+](=O)[O-])c(C(F)(F)F)c1 [FLUTAMIDE]
Value: > 30 µM
--
Compound: CCC1(C2=CCCCCC2)C(=O)NC(=O)NC1=O [HEPTABARBITAL]
Value: > 10 µM
--
Compound: CC(=O)O[C@]1(C(C)=O)CC[C@H]2[C@@H]3C[C@H](C)C4=CC(=O)CC[C@]4(C)[C@H]3CC[C@@]21C [MEDROXYPROGESTERONE ACETATE]
Value: > 30 µM
--
Compound: CN(C)CCCN1c2ccccc2Sc2ccccc21 [PROMAZINE]
Value: > 30 µM
--
Compound: CCNC(C)Cc1cccc(C(F)(F)F)c1 (configuration not stated) [FENFLURAMINE]
Value: > 30 µM
--
Compound: COC(=O)N[C@H](C(=O)N[C@@H](Cc1ccccc1)[C@@H](O)CN(Cc1ccc(-c2ccccn2)cc1)NC(=O)[C@@H](NC(=O)OC)C(C)(C)C)C(C)(C)C [ATAZANAVIR]
Value: 10.6 µM
--
Compound: CCN1CCC[C@H]1CNC(=O)c1cc(S(N)(=O)=O)ccc1OC [LEVOSULPIRIDE]
Value: > 30 µM
--
Compound: C[N+](C)(C)CCOC(N)=O [CARBAMOYLCHOLINE]
Value: > 10 µM
--
Compound: Cc1cccc(C)c1OCC(C)N (configuration not stated) [MEXILETINE]
Value: > 30 µM
--
Compound: COc1ccccc1OCC(O)COC(N)=O (configuration not stated) [METHOCARBAMOL]
Value: > 10 µM
--
Compound: Cc1cc2c(OCC(CNC(C)(C)C)OC(=O)c3ccccc3)cccc2[nH]1 (configuration not stated) [BOPINDOLOL]
Value: 16 µM
--
Compound: Cc1nc2ccc(CN(C)c3ccc(C(=O)N[C@@H](CCC(=O)O)C(=O)O)s3)cc2c(=O)[nH]1 [RALTITREXED]
Value: > 30 µM
--
Compound: OCCN1CCN(CCCN2c3ccccc3C=Cc3ccccc32)CC1 [OPIPRAMOL]
Value: > 30 µM
--
Compound: O=C(O)CCCc1ccccc1 [PHENYLBUTANOIC ACID]
Value: > 10 µM
--
Compound: CC(C)c1c(C(=O)Nc2ccccc2)c(-c2ccccc2)c(-c2ccc(F)cc2)n1CC[C@@H](O)C[C@@H](O)CC(=O)O [ATORVASTATIN]
Value: > 30 µM
--
Compound: C[N+](C)(C)CC(=O)O [BETAINE]
Value: > 30 µM
--
Compound: CCCC(=O)N1CCCN(c2nc(N)c3cc(OC)c(OC)cc3n2)CC1 [BUNAZOSIN]
Value: > 30 µM
--
Compound: CCCOc1ccc(C(=O)OCCN(CC)CC)cc1N [PROPARACAINE]
Value: > 30 µM
--
Compound: CC/C=C\C/C=C\C/C=C\CCCCCCCC(=O)O [LINOLENIC ACID]
Value: > 30 µM

Data credit: ChEMBL document CHEMBL5291721
